Cited source: patent US11026943B2

# ASSAY NOTES: Solubility (solvent listed in compound tables)
# Format: physicochemical
# DETAILS: solvent named, Table 4
ASSAY ENDPOINT: SOLUBILITY

{"columns": ["SAMPLE SMILES", "SOLUBILITY"],
 "data": [
  ["COc1ccc(Nc2ccnc(NCCCNc3ccnc4cc(Cl)ccc34)n2)cc1", "DMSO"],
  ["COc1ccc(Nc2ccnc(NCCCCNc3ccnc4cc(Cl)ccc34)n2)cc1", "DMSO"],
  ["Cc1cc(Nc2ccc(F)cc2)nc(NCCCCNc2ccnc3cc(Cl)ccc23)n1", "DMSO"],
  ["COc1ccc(Nc2cc(C)nc(NCCCCNc3ccnc4cc(Cl)ccc34)n2)cc1", "DMSO"],
  ["Cc1ccc(Nc2cc(C)nc(NCCNc3ccnc4cc(Cl)ccc34)n2)cc1", "DMSO"],
  ["Cc1ccc(Nc2ccnc(NCCCCNc3ccnc4cc(Cl)ccc34)n2)cc1", "DMSO"],
  ["Cc1cc(Nc2ccc(Cl)cc2)nc(NCCCNc2ccnc3cc(Cl)ccc23)n1", "DMSO"],
  ["Cc1cc(Nc2ccc(Br)cc2)nc(NCCCCNc2ccnc3cc(Cl)ccc23)n1", "DMSO"],
  ["Clc1ccc2c(NCCNc3nccc(Nc4ccccc4)n3)ccnc2c1", "DMSO"],
  ["Cc1cc(Nc2ccc(Cl)cc2)nc(NCCCCNc2ccnc3cc(Cl)ccc23)n1", "DMSO"]
]}

QUERY: Given the molecule Clc1ccc2c(NCCNc3nccc(Nc4ccc(Br)cc4)n3)ccnc2c1 , what is its reported SOLUBILITY?
RESULT: DMSO

QUERY: Reported SOLUBILITY for Cc1ccc(Nc2cc(C)nc(NCCCNc3ccnc4cc(Cl)ccc34)n2)cc1 : what is it?
RESULT: DMSO

QUERY: Please give the measured SOLUBILITY for this molecule: Cc1ccc(Nc2cc(C)nc(NCCCCNc3ccnc4cc(Cl)ccc34)n2)cc1
RESULT: DMSO

QUERY: # SOLUBILITY lookup, item Clc1ccc(Nc2ccnc(NCCCCNc3ccnc4cc(Cl)ccc34)n2)cc1
RESULT: DMSO
